Reference for the values: patent US20250066421A1

Recorded Kd for the following binders
MEASUREMENT_TARGET: Human Nectin-4 (residues Gly32-Ser349; NCBI RefSeq: NP_112178.2) with C-terminal FLAG tag, biotinylated (human) (UniProt Q96NY8)
Sequence (Q96NY8 32-349 limits assumed): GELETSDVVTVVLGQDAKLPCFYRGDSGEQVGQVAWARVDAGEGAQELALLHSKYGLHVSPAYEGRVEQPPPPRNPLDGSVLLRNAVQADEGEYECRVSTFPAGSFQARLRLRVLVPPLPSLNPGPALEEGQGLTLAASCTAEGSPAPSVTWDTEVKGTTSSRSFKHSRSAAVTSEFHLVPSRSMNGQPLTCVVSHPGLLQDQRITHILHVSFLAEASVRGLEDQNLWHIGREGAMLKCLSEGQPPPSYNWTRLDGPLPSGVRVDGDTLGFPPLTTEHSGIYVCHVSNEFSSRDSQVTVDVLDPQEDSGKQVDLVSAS
METHOD_NOTES: SPR (Biacore 3000), biotinylated human Nectin-4 on streptavidin CM5 chip, peptide as analyte
*1 amine or outer side, *2 acyl side, *3 side chain or, on linkers, in order; H or OH if unused. Bridges are numbered along the chain shown (N, C = ends). Where no end group is shown, it is not given here. [ ]: non-standard residue; d: D form. TATA = O=C(CC[*:1])N1CN(C(=O)CC[*:2])CN(C(=O)CC[*:3])C1; 1Nal = N[C@@H](Cc1cccc2ccccc12)C(=O)O; Cya = N[C@@H](CS(=O)(=O)O)C(=O)O; Hyp = O=C(O)[C@@H]1C[C@@H](O)CN1; dCya = N[C@H](CS(=O)(=O)O)C(=O)O; hArg = N=C(N)NCCCC[C@H](N)C(=O)O; βAla = NCCC(=O)O; Sar = CNCC(=O)O

>  <BINDER>
{Ac-βAla}-[Sar][Sar][Sar][Sar][Sar][Sar][Sar][Sar][Sar][Sar]CP[1Nal][dCya]CM[hArg][Cya]WSTP[Hyp]WC (linker 11-15-25 via TATA) [BCY8280: Ac-[B-Ala][Sar10]-(SEQ ID NO: 209)]

>  <UNIT_DESCRIPTOR>
nM

>  <Kd>
2

$$$$
>  <BINDER>
{Ac-βAla}-[Sar][Sar][Sar][Sar][Sar][Sar][Sar][Sar][Sar][Sar]CP[1Nal][dD]CM[Cya][Cya]WSTP[Hyp]WC (linker 11-15-25 via TATA) [BCY8281: Ac-[B-Ala][Sar10]-(SEQ ID NO: 210)]

>  <UNIT_DESCRIPTOR>
nM

>  <Kd>
6.11

$$$$
>  <BINDER>
{Ac-βAla}-[Sar][Sar][Sar][Sar][Sar][Sar][Sar][Sar][Sar][Sar]CP[1Nal][dD]CM[hArg][Cya]WSTP[Hyp]WC (linker 11-15-25 via TATA) [BCY8278: Ac-[B-Ala][Sar10]-(SEQ ID NO: 177)]

>  <UNIT_DESCRIPTOR>
nM

>  <Kd>
1.92

$$$$
>  <BINDER>
Ac-CP[1Nal][dD]CM[hArg][Cya]WSTP[Hyp]WC (linker 1-5-15 via TATA) [BCY8161: Ac-(SEQ ID NO: 177)]

>  <UNIT_DESCRIPTOR>
nM

>  <Kd>
0.94

$$$$
